# Experimental System: Aedes aegypti neuropeptide Y-like receptor 7 (NPYLR7)
# Experimental Details: agonists of mosquito NPYLR7 receptor, confirmation, cell-based, Aedes aegypti, hit validation, mosquito biting behavior (AID 1259427);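 further: potency of agonists that activate the receptor and raise the calcium signal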
# Condition Notes: HEK293T NPYLR7/Galpha15/GCaMP6s, calcium fluorescence
Calls of active or inactive are those of the source.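 How the source made its calls: active means EC50 at or below a set limit, with no effect in the paired counter-screen assay; inactive means the rest.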
Classes used: TRUE (active), FALSE (inactive)

INSERT INTO measurements (molecule, label_class) VALUES
  ('COc1cc(C=CC(=O)c2ccc3c(c2)OCCO3)cc(Br)c1O', 'FALSE'),
  ('CC[C@@]1(O)C(=O)OCc2c1cc1n(c2=O)Cc2cc3c(CN(C)C)c(O)ccc3nc2-1', 'FALSE'),
  ('COc1ccc(C2=NN(C(=O)CN3CCOCC3)C(c3nc4ccccc4[nH]3)C2)cc1 (stereo not given)', 'FALSE'),
  ('O=C(O)CN1C(=O)/C(=C\c2cc([N+](=O)[O-])cc(Br)c2O)SC1=S', 'FALSE'),
  ('CCCn1c2c(c(=O)n(C)c1=O)C(=O)C(=Cc1ccc(N(C)C)cc1)N2', 'FALSE'),
  ('N#C/C(=C/c1ccc(N2CCCCC2)o1)c1cccc(F)c1', 'FALSE'),
  ('O[C@@H]1CN(Cc2ccncc2Cl)CC[C@H]1c1ccc2c(c1)OCO2', 'FALSE'),
  ('CNCC(O)c1ccc(O)c(O)c1 (stereo not given)', 'FALSE'),
  ('COCCN=Cc1cc(I)cc(I)c1O', 'FALSE'),
  ('O=C(c1snc2c(=O)n(Cc3ccccc3)c(=O)[nH]c12)N1CCSCC1', 'FALSE'),
  ('CN1C(=S)N(C2CCCCC2)C(=O)/C1=C\c1ccc2c(c1)OCO2', 'FALSE'),
  ('CCOc1cc(/C=C2\SC(=S)N(NC(=O)c3ccccc3O)C2=O)ccc1O', 'FALSE'),
  ('CC[n+]1c(/C=C/C=C2/N(C)c3ccccc3C2(C)C)sc2ccccc21', 'FALSE'),
  ('COc1ccc(OC)c(CCNc2nc3cnc(-c4cccc5ccccc45)cc3n2C)c1', 'TRUE'),
  ('CSCCC(C(=O)O)N1C(=O)/C(=C/c2ccc(O)cc2)SC1=S (stereo not given)', 'FALSE'),
  ('CCCCN(C)C1=CC2=CC(=C(C#N)C#N)CCC2CC1 (stereo not given)', 'FALSE'),
  ('CN1C(=CC=C2C(=O)Oc3ccccc3C2=O)C(C)(C)c2ccccc21', 'FALSE'),
  ('O=C(Cc1ccc2c(c1)CCC2)NCC1CCN(c2ccccc2)C1 (stereo not given)', 'FALSE'),
  ('COc1ccc2c(C)nc(N=C(N)N)nc2c1', 'TRUE'),
  ('CCCCNC(=O)CCCCCNC(N)=O', 'FALSE'),
  ('Cc1cc(O)c(CN2CCCCC2)c2c1C(=O)/C(=C/c1cc3ccccc3o1)O2', 'FALSE'),
  ('Cc1nc2ncccc2cc1C(=O)N1CCC2(CCNC(=O)CC2)CC1', 'FALSE'),
  ('O=C(N=Nc1c(O)[nH]c2ccc(Br)cc12)c1ccccc1Cl', 'FALSE'),
  ('COc1cccc(-n2c(O)c(C=Nc3cc(OC)ccc3OC)c3ccccc3c2=O)c1', 'FALSE'),
  ('Cc1nc(Sc2nnc3ccccn23)c2c3c(sc2n1)CCCC3', 'FALSE'),
  ('COc1cc(/C=C/c2nc3ccccc3o2)cc(Cl)c1O', 'FALSE'),
  ('CN(Cc1cnc2ccccc2n1)C(=O)C1CC2(CCNCC2)CN1 (stereo not given)', 'FALSE'),
  ('O=[N+]([O-])c1ccc(-n2nc3ccc4nonc4c3n2)cc1', 'FALSE'),
  ('CCC(CO)[n+]1c(C)cc(C=C2Sc3ccccc3N2CC)cc1C (stereo not given)', 'FALSE'),
  ('O=c1oc2cc(O)ccc2cc1-c1nc2ccccc2s1', 'FALSE'),
  ('CNC[C@@H](O)c1ccc(O)c(O)c1', 'FALSE'),
  ('Oc1ccc(-c2onc3ccc(Cl)cc23)cc1', 'FALSE'),
  ('CC1(C)CC(c2[nH]cnc2-c2ccccc2)CCO1 (stereo not given)', 'FALSE'),
  ('CS(=O)(=O)c1ccc(-c2cccc3c2OC(CNC(=O)c2cc[n+]([O-])cc2)C3)cc1 (stereo not given)', 'TRUE'),
  ('CCOc1cc(/C=C(\C#N)c2nc3ncc(Br)cc3[nH]2)ccc1O', 'FALSE'),
  ('COc1ccc(NC[C@@H]2C=C(C)[C@H](Cc3nnc(C)o3)C[C@H]2C(C)C)cn1', 'FALSE'),
  ('Cc1oc(-c2cccc(NC(=O)CC(C)C)c2)nc1CNC(=O)Cc1cc(F)cc(F)c1', 'FALSE'),
  ('O=C(C1=NN(c2ccccc2)C2C(=O)N(c3ccccc3)C(=O)C12)c1ccccc1 (stereo not given)', 'FALSE'),
  ('O=C(Nc1cccc(-c2nnco2)c1)C1CCCCC1', 'FALSE'),
  ('CCCc1nn2c(N)c(C=C3C=C(Cl)C(=O)C(Cl)=C3)c(=O)nc2s1', 'FALSE'),
  ('COCCOc1ccc(NC(=O)N(C)C(C)C2(C)CC2)cn1 (stereo not given)', 'FALSE'),
  ('COc1ccc(OC)c(CCNc2nc3cnc(-c4ccc(Cl)cc4)cc3n2C)c1', 'TRUE'),
  ('CCN(CC)C1=CC2=CC(=C(C#N)C#N)CCC2CC1 (stereo not given)', 'FALSE'),
  ('CNC(=O)NC(=O)CCN1CC(c2ccccc2Cl)c2c([nH]c3ccccc23)C1C (stereo not given)', 'FALSE'),
  ('Nc1ccc2c3c(cccc13)C(=O)N(c1ccccc1)C2=O', 'FALSE');
